AC50 tested on Gamma-aminobutyric acid receptor subunit alpha-1 (Rattus norvegicus, UniProt P62813): recorded values; further: assay procedure not described here
Sequence (P62813 whole entry): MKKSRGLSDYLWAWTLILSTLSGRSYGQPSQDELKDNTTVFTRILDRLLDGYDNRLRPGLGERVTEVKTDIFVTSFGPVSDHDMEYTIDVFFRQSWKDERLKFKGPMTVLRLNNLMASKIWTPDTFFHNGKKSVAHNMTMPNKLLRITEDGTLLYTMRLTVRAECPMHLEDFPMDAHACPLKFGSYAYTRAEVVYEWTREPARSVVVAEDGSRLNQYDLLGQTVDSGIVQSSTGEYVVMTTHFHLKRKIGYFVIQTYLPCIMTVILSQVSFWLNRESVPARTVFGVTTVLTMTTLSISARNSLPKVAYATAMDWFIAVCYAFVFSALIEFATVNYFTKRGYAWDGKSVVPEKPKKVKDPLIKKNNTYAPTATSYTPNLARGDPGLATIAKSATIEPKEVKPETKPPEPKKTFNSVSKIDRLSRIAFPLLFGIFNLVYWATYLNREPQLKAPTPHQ
readout kind: AC50

>  <molecule>
CS(=O)(=O)NC(=O)CCC/C=C\C[C@H]1C(=O)C[C@@H](O)[C@@H]1/C=C/[C@@H](O)COc1ccccc1 [SULPROSTONE]

>  <readout kind>
AC50

>  <readout value>
> 30 µM

$$$$
>  <molecule>
CC(C)(C)NCC(O)COc1cccc2c1CC(O)C(O)C2 (stereo not drawn) [NADOLOL]

>  <readout kind>
AC50

>  <readout value>
> 10 µM

$$$$
>  <molecule>
CC1=C(/C=C/C(C)=C/C=C/C(C)=C/C(=O)Oc2c(C)c(C)c3c(c2C)CCC(C)(CCCC(C)CCCC(C)CCCC(C)C)O3)C(C)(C)CCC1 (stereo not drawn) [TRETINOIN TOCOFERIL]

>  <readout kind>
AC50

>  <readout value>
> 30 µM

$$$$
>  <molecule>
COc1cc(N)cn[n+]1-c1ccccc1 [AMEZINIUM METILSULFATE]

>  <readout kind>
AC50

>  <readout value>
> 30 µM

$$$$
>  <molecule>
C[C@H](CS)C(=O)N1CCC[C@H]1C(=O)O [CAPTOPRIL]

>  <readout kind>
AC50

>  <readout value>
> 10 µM

$$$$
>  <molecule>
Oc1cc(Cl)ccc1Oc1ccc(Cl)cc1Cl [TRICLOSAN]

>  <readout kind>
AC50

>  <readout value>
> 10 µM

$$$$
>  <molecule>
C[C@]12C=CC(=O)C=C1CC[C@@H]1[C@@H]2[C@@H](O)C[C@@]2(C)[C@H]1CC[C@]2(O)C(=O)CO [PREDNISOLONE]

>  <readout kind>
AC50

>  <readout value>
> 10 µM

$$$$
>  <molecule>
CN(C)CCOC(=O)C(c1ccccc1)C1(O)CCCC1 (stereo not drawn) [CYCLOPENTOLATE]

>  <readout kind>
AC50

>  <readout value>
> 10 µM

$$$$
>  <molecule>
CC[N+](CC)(CCNC(=O)C(=O)NCC[N+](CC)(CC)Cc1ccccc1Cl)Cc1ccccc1Cl [AMBENONIUM]

>  <readout kind>
AC50

>  <readout value>
> 30 µM

$$$$
>  <molecule>
CCOC(=O)O[C@]1(C(=O)COC(=O)CC)CC[C@H]2[C@@H]3CCC4=CC(=O)C=C[C@]4(C)[C@H]3[C@@H](O)C[C@@]21C [PREDNICARBATE]

>  <readout kind>
AC50

>  <readout value>
> 10 µM

$$$$
>  <molecule>
CCN(CC)Cc1nccn1-c1ccc([N+](=O)[O-])cc1C(=O)c1ccccc1Cl [NIZOFENONE]

>  <readout kind>
AC50

>  <readout value>
> 30 µM

$$$$
>  <molecule>
Cc1ccc(-c2ncc(Cl)cc2-c2ccc(S(C)(=O)=O)cc2)cn1 [ETORICOXIB]

>  <readout kind>
AC50

>  <readout value>
> 10 µM

$$$$
>  <molecule>
OCC(O)COc1ccc(Cl)cc1 (stereo not drawn)

>  <readout kind>
AC50

>  <readout value>
> 10 µM

$$$$
>  <molecule>
CCN(CC)C(C)C(=O)c1ccccc1 (stereo not drawn) [DIETHYLPROPION]

>  <readout kind>
AC50

>  <readout value>
> 10 µM

$$$$
>  <molecule>
CCCCC[C@H](O)CC[C@@H]1[C@H]2Cc3cccc(OCC(=O)O)c3C[C@H]2C[C@H]1O [TREPROSTINIL]

>  <readout kind>
AC50

>  <readout value>
> 30 µM

$$$$
>  <molecule>
CC(=O)OCC1=C(C(=O)O)N2C(=O)[C@@H](NC(=O)CSc3ccncc3)[C@H]2SC1 [CEPHAPIRIN]

>  <readout kind>
AC50

>  <readout value>
> 10 µM

$$$$
>  <molecule>
CN1CCCN=C1/C=C/c1cccc(O)c1 [OXANTEL]

>  <readout kind>
AC50

>  <readout value>
> 30 µM

$$$$
>  <molecule>
CC(C(=O)O)c1ccc(C(=O)c2ccccc2)s1 (stereo not drawn) [TIAPROFENIC ACID]

>  <readout kind>
AC50

>  <readout value>
> 10 µM

$$$$
